Origin of the recorded values: BigSolDB 2.1

conditions: in isopropanol, 303.15 K
measurement_type: solubility (mole fraction)

O=C(O)CN(CC(=O)O)CP(=O)(O)O ... 8.19e-05

---

conditions: in n-pentanol, 333.15 K
measurement_type: solubility (mole fraction)

O=C(O)CN(CC(=O)O)CP(=O)(O)O ... 0.00195

---

details: in n-butanol, 303.15 K
measurement_type: solubility (mole fraction)

O=C(O)CN(CC(=O)O)CP(=O)(O)O ... 0.000186

---

conditions: in acetone, 308.15 K
measurement_type: solubility (mole fraction)

O=C(O)CN(CC(=O)O)CP(=O)(O)O ... 0.000352

---

settings: in toluene, 333.15 K
measurement_type: solubility (mole fraction)

O=C(O)CN(CC(=O)O)CP(=O)(O)O ... 0.00248

---

details: in n-hexanol, 303.15 K
measurement_type: solubility (mole fraction)

O=C(O)CN(CC(=O)O)CP(=O)(O)O ... 0.00116

---

details: in toluene, 303.15 K
measurement_type: solubility (mole fraction)

O=C(O)CN(CC(=O)O)CP(=O)(O)O ... 0.000427

---

conditions: in ethyl acetate, 318.15 K
measurement_type: solubility (mole fraction)

O=C(O)CN(CC(=O)O)CP(=O)(O)O ... 0.00153

---

conditions: in n-pentanol, 293.15 K
measurement_type: solubility (mole fraction)

O=C(O)CN(CC(=O)O)CP(=O)(O)O ... 0.000125

---

details: in isopropanol, 343.15 K
measurement_type: solubility (mole fraction)

O=C(O)CN(CC(=O)O)CP(=O)(O)O ... 0.00286

---

conditions: in ethyl acetate, 303.15 K
measurement_type: solubility (mole fraction)

O=C(O)CN(CC(=O)O)CP(=O)(O)O ... 0.000791

---

conditions: in n-butanol, 343.15 K
measurement_type: solubility (mole fraction)

O=C(O)CN(CC(=O)O)CP(=O)(O)O ... 0.00342
